FYI, the data here is from patent US20240390512A1.

Molecular target: T1, human CDH6 (full-length and EC domain deletion mutants) (Homo sapiens, UniProt P55285, DEL487-608)
T1 construct: each one of the five EC domains could be deleted from full-length human CDH6; 3xFLAG (deletion mutants only, from the vector p3×FLAG-CMV-9); expressed in transfected cells; host or cells: 293α cells
T1 sequence (P55285 with tags, fused parts or gaps DEL487-608): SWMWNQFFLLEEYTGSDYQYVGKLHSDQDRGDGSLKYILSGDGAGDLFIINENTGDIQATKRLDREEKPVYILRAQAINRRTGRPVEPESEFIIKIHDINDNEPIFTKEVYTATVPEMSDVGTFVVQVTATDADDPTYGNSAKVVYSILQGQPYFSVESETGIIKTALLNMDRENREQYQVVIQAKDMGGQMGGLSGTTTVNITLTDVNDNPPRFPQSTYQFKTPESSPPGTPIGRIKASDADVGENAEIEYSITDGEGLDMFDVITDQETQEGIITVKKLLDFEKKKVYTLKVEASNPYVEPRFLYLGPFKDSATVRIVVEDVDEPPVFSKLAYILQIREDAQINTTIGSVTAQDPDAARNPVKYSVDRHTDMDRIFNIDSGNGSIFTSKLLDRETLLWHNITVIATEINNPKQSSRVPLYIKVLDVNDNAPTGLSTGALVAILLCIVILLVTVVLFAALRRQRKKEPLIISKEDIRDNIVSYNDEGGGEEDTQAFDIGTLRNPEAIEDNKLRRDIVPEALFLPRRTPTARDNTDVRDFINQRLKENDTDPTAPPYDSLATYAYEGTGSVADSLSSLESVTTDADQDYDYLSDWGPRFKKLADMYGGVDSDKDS
Assay: Epitope analysis of rat anti-CDH6 antibody by flow cytometry using domain deletion mutants
Assay type: binding
Conditions: flow cytometry; transfected 293α cells; antibody 20 nM

molecule	binding to EC5 deletion mutant
rG019: rat anti-human CDH6 monoclonal antibody produced by hybridoma rG019; variable regions SEQ ID NO: 10 and 15 (antibody, listed as Rattus norvegicus, V domains shown) VL: DIQMTQSPSLLSASVGDRVTLNCKASQNIYKNLAWYQQKLGEGPKLLIYDANTLQTGIPSRFSGSGSGSDFTLTISSLQPEDVATYFCQQYYSGWAFGGVTNLELKRA VH: QVQLQQSGAELVKPGSSVKISCKASGYTFTRNFMHWIKQQPGNGLEWIGWIYCGDGETEYNQKFNGKATLTADRSSSTAYMELSRLTSEDSAVYFCARGVYGGFAGGYFDFWGQGVMVTVSS	bind
rG055: rat anti-human CDH6 monoclonal antibody produced by hybridoma rG055; variable regions SEQ ID NO: 20 and 25 (antibody, listed as Rattus norvegicus, V domains shown) VL: DVQMTHSPSYLAASPGESVSISCKTSKNISNYLVWYQQKPGEAYKLLIYSGSTLQSGTPSRFSGSGSGTDFTLTIRSLEPEDFGLYFCQQYYEKPFTFGSGTKLEIKRA VH: EVQLQESGPGLVRPSQSLSLSCSVTDYSITSNYWGWIRRFPGNKMEWMGYITYSGYTSYNPSLQSRISITRDTSKNQFFLQLNSVTAEDTATYYCARSINHGGYSYVVDAWGPGASVTVSS	bind
